Hey, just so you know, these numbers are from ChEMBL document CHEMBL2331552.

- test.description: Dissociation constant, pKa of the compound
- Type: physicochemical

- record.smiles: "CS(=O)(=O)c1ccc([C@@H](CC2CCCC2)C(=O)Nc2cnc([C@H](O)CO)cn2)cc1Cl"
  pKa: 11.4

----------
- test.description: Volume of distribution at steady state in C57Bl/6J mouse at 10 mg/kg, iv
- Type: ADME, organism-based
- Set-up: dose 10 mg/kg, route intravenous
- condition.parameters: in vivo, read-out: Vdss
metric.name: Vd (L/kg)

- record.smiles: "CS(=O)(=O)c1ccc([C@@H](CC2CCCC2)C(=O)Nc2cnc([C@H](O)CO)cn2)cc1Cl"
  metric.name: "Vd"
  unit.name: "L/kg"
  val: 1.44

----------
- tgt: Hexokinase-4 (Homo sapiens) (UniProt P35557)
- Sequence (whole entry): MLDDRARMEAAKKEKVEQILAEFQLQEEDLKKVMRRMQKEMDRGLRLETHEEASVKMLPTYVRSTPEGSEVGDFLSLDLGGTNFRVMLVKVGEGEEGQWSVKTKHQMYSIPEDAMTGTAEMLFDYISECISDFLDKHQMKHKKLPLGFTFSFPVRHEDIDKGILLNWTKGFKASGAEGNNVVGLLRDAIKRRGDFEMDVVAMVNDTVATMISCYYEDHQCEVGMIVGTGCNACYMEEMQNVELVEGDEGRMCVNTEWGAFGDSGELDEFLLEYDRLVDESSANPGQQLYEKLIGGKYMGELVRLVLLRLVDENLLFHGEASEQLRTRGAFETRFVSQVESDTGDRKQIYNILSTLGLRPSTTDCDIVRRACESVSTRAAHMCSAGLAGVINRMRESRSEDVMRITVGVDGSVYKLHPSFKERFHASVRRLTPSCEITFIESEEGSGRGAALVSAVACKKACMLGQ
- test.description: Activation of glucokinase (unknown origin) using glucose as substrate assessed as stimulation concentration required to achieve 150% activity relative to control

- record.smiles: "CS(=O)(=O)c1ccc([C@@H](CC2CCCC2)C(=O)Nc2cnc(OC[C@@H](O)CO)cn2)cc1Cl"
  tgt: "Hexokinase-4 (Homo sapiens) (UniProt P35557)"
  Activity / µM: 0.3
- record.smiles: "CC(C)(O)[C@@H](O)c1cnc(NC(=O)[C@H](CC2CCCC2)c2ccc(S(C)(=O)=O)c(Cl)c2)cn1"
  tgt: "Hexokinase-4 (Homo sapiens) (UniProt P35557)"
  Activity / µM: 0.31
- record.smiles: "CS(=O)(=O)c1ccc([C@@H](CC2CCCC2)C(=O)Nc2cnc(/C(N)=N\\O)cn2)cc1Cl"
  tgt: "Hexokinase-4 (Homo sapiens) (UniProt P35557)"
  Activity / µM: 0.037

----------
- test.description: Solubility of the compound at pH 7.4
- Format: physicochemical
- condition.parameters: buffer

- record.smiles: "CS(=O)(=O)c1ccc([C@@H](CC2CCCC2)C(=O)Nc2cnc([C@H](O)CO)cn2)cc1Cl"
  solubility, µg/mL: 170

----------
- test.description: Cmax in dog at 30 mg/kg, po
- Format: ADME, organism-based, Canis lupus familiaris
- Design: dose 30 mg/kg, route oral
- condition.parameters: in vivo

- record.smiles: "CS(=O)(=O)c1ccc([C@@H](CC2CCCC2)C(=O)Nc2cnc([C@H](O)CO)cn2)cc1Cl"
  Cmax (ng/mL): 3790

----------
- tgt: hERG (KCNH2) (Homo sapiens)
- Sequence (Q12809 whole entry): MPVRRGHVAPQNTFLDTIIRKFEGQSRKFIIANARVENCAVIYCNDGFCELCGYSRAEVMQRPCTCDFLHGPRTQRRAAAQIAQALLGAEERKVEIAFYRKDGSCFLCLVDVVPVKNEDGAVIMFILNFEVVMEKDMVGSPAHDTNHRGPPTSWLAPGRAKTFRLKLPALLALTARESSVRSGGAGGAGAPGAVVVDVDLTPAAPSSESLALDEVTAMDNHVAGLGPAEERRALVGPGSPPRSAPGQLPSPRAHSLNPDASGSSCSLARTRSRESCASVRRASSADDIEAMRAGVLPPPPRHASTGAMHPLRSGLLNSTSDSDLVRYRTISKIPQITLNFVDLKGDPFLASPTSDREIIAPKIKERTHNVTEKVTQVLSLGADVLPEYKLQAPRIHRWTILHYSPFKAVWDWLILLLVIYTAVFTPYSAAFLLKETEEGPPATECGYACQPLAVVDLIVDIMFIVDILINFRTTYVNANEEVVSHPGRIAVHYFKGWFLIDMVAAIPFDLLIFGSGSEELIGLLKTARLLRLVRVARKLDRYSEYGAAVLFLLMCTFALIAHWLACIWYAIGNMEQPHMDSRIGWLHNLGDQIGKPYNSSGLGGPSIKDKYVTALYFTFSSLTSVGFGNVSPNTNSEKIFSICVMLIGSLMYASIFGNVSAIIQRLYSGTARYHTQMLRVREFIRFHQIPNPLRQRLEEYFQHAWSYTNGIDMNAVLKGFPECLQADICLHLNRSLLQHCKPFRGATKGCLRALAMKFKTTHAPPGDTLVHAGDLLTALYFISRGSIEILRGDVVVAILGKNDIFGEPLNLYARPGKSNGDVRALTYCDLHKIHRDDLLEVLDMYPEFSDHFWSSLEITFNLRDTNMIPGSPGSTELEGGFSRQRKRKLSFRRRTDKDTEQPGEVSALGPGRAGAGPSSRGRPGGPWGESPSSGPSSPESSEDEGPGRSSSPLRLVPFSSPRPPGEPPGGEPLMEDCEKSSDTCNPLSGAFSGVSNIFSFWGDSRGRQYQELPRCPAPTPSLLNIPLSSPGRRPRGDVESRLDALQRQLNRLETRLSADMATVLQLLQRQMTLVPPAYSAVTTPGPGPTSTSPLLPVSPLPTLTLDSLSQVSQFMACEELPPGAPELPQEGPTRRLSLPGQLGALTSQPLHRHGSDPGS
- test.description: Inhibition of human ERG channel at 10 uM by patch clamp method
metric.name: inhibition at 10 µM (%)

- molecule: "COCC#Cc1cnc(NC(=O)[C@H](CC2CCCC2)c2ccc(S(C)(=O)=O)c(Cl)c2)cn1"
  metric.name: "inhibition at 10 µM"
  val: 53
- molecule: "CN(C)CC#Cc1cnc(NC(=O)[C@H](CC2CCCC2)c2ccc(S(C)(=O)=O)c(Cl)c2)cn1"
  metric.name: "inhibition at 10 µM"
  val: 86
- molecule: "CS(=O)(=O)c1ccc([C@@H](CC2CCCC2)C(=O)Nc2cnc(/C(N)=N\\O)cn2)cc1Cl"
  metric.name: "inhibition at 10 µM"
  val: 50
- molecule: "CS(=O)(=O)c1ccc([C@@H](CC2CCCC2)C(=O)Nc2cnc([C@H](O)CO)cn2)cc1Cl"
  metric.name: "inhibition at 10 µM"
  val: 22
- molecule: "CS(=O)(=O)c1ccc([C@@H](CC2CCCC2)C(=O)Nc2cnc(C(=O)NO)cn2)cc1Cl"
  metric.name: "inhibition at 10 µM"
  val: 37
- molecule: "C[S+]([O-])c1cnc(NC(=O)[C@H](CC2CCCC2)c2ccc(S(C)(=O)=O)c(Cl)c2)cn1 (some centres not stated)"
  metric.name: "inhibition at 10 µM"
  val: 27
- molecule: "C/C(=N/O)c1cnc(NC(=O)[C@H](CC2CCCC2)c2ccc(S(C)(=O)=O)c(Cl)c2)cn1"
  metric.name: "inhibition at 10 µM"
  val: 73
- molecule: "CS(=O)(=O)c1ccc(C(CC2CCOCC2)C(=O)Nc2cnccn2)cc1Cl (configuration not stated)"
  metric.name: "inhibition at 10 µM"
  val: 8.1
- molecule: "CS(=O)(=O)c1ccc([C@@H](CC2CCCC2)C(=O)Nc2cnc([C@@H](O)CO)cn2)cc1Cl"
  metric.name: "inhibition at 10 µM"
  val: 21
- molecule: "COc1cc(C(CC2CCCC2)C(=O)Nc2cnccn2)ccc1S(C)(=O)=O (configuration not stated)"
  metric.name: "inhibition at 10 µM"
  val: 36
- molecule: "CS(=O)(=O)c1ccc([C@@H](CC2CCCC2)C(=O)Nc2cnc(C#CCO)cn2)cc1Cl"
  metric.name: "inhibition at 10 µM"
  val: 46
- molecule: "CS(=O)(=O)c1ccc([C@@H](CC2CCCC2)C(=O)Nc2cnc(CCC3(O)CCOCC3)cn2)cc1Cl"
  metric.name: "inhibition at 10 µM"
  val: 40

----------
- test.description: AUC (0 to infinity) in dog at 10 mg/kg, iv
- Assay type: ADME, organism-based, Canis lupus familiaris
- Parameters: time infinity, dose 10 mg/kg, route intravenous
- condition.parameters: plasma

- record.smiles: "CS(=O)(=O)c1ccc([C@@H](CC2CCCC2)C(=O)Nc2cnc([C@H](O)CO)cn2)cc1Cl"
  unit.name: "ng·h/mL"
  AUC(0-inf): 21600

----------
- test.description: Lipophilicity, log D of the compound at pH 7.4
- Type: physicochemical
- condition.parameters: buffer

- record.smiles: "CS(=O)(=O)c1ccc([C@@H](CC2CCCC2)C(=O)Nc2cnc([C@H](O)CO)cn2)cc1Cl"
  logD: 2.7

----------
- tgt: Hexokinase-4 (Homo sapiens) (UniProt P35557)
- Sequence (whole entry): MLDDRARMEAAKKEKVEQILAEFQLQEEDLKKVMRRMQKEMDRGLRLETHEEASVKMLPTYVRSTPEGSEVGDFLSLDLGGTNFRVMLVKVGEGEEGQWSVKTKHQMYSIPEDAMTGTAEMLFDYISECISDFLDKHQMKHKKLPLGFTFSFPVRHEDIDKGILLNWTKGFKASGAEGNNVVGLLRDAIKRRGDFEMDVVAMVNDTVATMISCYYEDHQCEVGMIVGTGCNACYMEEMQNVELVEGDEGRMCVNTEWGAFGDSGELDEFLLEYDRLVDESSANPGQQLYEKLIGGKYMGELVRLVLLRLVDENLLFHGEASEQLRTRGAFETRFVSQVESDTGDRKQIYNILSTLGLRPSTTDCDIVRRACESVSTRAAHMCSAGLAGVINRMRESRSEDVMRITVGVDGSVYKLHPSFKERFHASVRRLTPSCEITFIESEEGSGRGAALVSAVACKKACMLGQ
- test.description: Activation of glucokinase (unknown origin) using glucose as substrate assessed as stimulation concentration required to achieve 150% activity relative to control
metric.name: Activity (µM)

- compound: "CS(=O)(=O)c1ccc([C@@H](CC2CCCC2)C(=O)Nc2cnc([C@H](O)CO)cn2)cc1Cl"
  tgt: "Hexokinase-4 (Homo sapiens) (UniProt P35557)"
  unit.name: "µM"
  val: 0.26
- compound: "CS(=O)(=O)c1ccc([C@@H](CC2CCCC2)C(=O)Nc2cnccn2)cc1Cl"
  tgt: "Hexokinase-4 (Homo sapiens) (UniProt P35557)"
  unit.name: "µM"
  val: 0.11
- compound: "CS(=O)(=O)c1ccc([C@@H](CC2CCCC2)C(=O)Nc2cnc([C@@H](O)CO)cn2)cc1Cl"
  tgt: "Hexokinase-4 (Homo sapiens) (UniProt P35557)"
  unit.name: "µM"
  val: 1.1
- compound: "CS(=O)(=O)Cc1cnc(NC(=O)[C@H](CC2CCCC2)c2ccc(S(C)(=O)=O)c(Cl)c2)cn1"
  tgt: "Hexokinase-4 (Homo sapiens) (UniProt P35557)"
  unit.name: "µM"
  val: 0.26
- compound: "CS(=O)(=O)c1ccc([C@@H](CC2CCCC2)C(=O)Nc2cnc(CCC3(O)CCOCC3)cn2)cc1Cl"
  tgt: "Hexokinase-4 (Homo sapiens) (UniProt P35557)"
  unit.name: "µM"
  val: 0.13
- compound: "COCC#Cc1cnc(NC(=O)[C@H](CC2CCCC2)c2ccc(S(C)(=O)=O)c(Cl)c2)cn1"
  tgt: "Hexokinase-4 (Homo sapiens) (UniProt P35557)"
  unit.name: "µM"
  val: 0.14
- compound: "CS(=O)(=O)c1ccc([C@@H](CC2CCCC2)C(=O)Nc2cnc(C#CCO)cn2)cc1Cl"
  tgt: "Hexokinase-4 (Homo sapiens) (UniProt P35557)"
  unit.name: "µM"
  val: 0.022
- compound: "COc1cc(C(CC2CCCC2)C(=O)Nc2cnccn2)ccc1S(C)(=O)=O (centres undefined)"
  tgt: "Hexokinase-4 (Homo sapiens) (UniProt P35557)"
  unit.name: "µM"
  val: 1.9
- compound: "CS(=O)(=O)c1ccc([C@@H](CC2CCCC2)C(=O)Nc2cnc(C(=O)NO)cn2)cc1Cl"
  tgt: "Hexokinase-4 (Homo sapiens) (UniProt P35557)"
  unit.name: "µM"
  val: 0.41
